Item-by-item account of pIC50
# SYSTEM_NAME: Programmed cell death protein 1/Programmed cell death 1 ligand 1 (Homo sapiens, UniProt Q15116+Q9NZQ7)
# Sequence (Q15116 whole entry): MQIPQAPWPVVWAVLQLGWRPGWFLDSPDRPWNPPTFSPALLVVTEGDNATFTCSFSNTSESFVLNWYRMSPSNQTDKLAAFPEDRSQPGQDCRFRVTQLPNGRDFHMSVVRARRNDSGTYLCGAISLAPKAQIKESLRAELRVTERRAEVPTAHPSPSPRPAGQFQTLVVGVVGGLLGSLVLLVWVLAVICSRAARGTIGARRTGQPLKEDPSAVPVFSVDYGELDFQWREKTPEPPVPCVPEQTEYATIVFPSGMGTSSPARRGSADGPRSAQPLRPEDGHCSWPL
# Sequence (Q9NZQ7 whole entry): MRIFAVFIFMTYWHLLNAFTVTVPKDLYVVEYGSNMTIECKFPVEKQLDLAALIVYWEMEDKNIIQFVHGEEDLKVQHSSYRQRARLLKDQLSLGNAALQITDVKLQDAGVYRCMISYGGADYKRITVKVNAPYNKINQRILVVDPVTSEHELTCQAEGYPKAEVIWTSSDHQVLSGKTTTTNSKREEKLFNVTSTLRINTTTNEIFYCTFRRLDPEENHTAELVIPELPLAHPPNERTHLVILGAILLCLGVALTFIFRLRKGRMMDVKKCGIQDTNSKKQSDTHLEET
# EXPERIMENT_SUMMARY: Inhibition of PD-1/PD-L1 interaction (unknown origin) by HTRF binding assay
# Format: protein-complex assay
# reply with the number alone; pIC50 is -log10 of concentration in mol/L

Study these solved cases before continuing.
[[record]]
chemical_structure = "Cc1cc(CN[C@@H](CO)C(=O)O)c(OCc2cncc(C#N)c2)cc1OCc1cccc(-c2ccc3c(c2)OCCO3)c1C"
measurement_label = "pIC50"
observed_measurement = 8.65

[[record]]
chemical_structure = "Cc1c(COc2cc(OCc3cccc(C#N)c3)c(CN[C@@H](CO)C(=O)O)cc2Cl)cccc1-c1ccc2c(c1)OCCO2"
measurement_label = "pIC50"
observed_measurement = 8.83

[[record]]
chemical_structure = "Cc1c(COc2cc(OCc3cncc(C#N)c3)c(CN[C@@H](CO)C(=O)O)cc2Cl)cccc1-c1cccc(OCCCN2CCC(O)CC2)c1"
measurement_label = "pIC50"
observed_measurement = 9.32


With those in mind, consider the next compound.
Supply reported pIC50 belonging to this compound: Cc1c(COc2cc(OCc3cccc(C#N)c3)c(CN[C@H](CCO)C(=O)O)cc2Cl)cccc1-c1cccc(COc2cc(OCc3cccnc3)c(CN[C@@H](CCO)C(=O)O)cc2Cl)c1 10.40
